- assay comment: Lipophilicity, log P of the compound at pH 7.5 by reversed phase HPLC analysis
- Assay type: physicochemical
- setup conditions: buffer
endpoint: logP

Worked examples follow.
smiles notation: CCN(CC)C(=O)Cc1c(-c2ccc(OCCF)cc2)nn2c(C)c(CC(C)=O)c(C)nc12
reported result: 2.07

smiles notation: CCc1c(C)nc2c(CC(=O)N(CC)CC)c(-c3ccc(OCCF)cc3)nn2c1C
reported result: 2.53

smiles notation: CCN(CC)C(=O)Cc1c(-c2ccc(OCCF)cc2)nn2c(C)c(Cl)c(C)nc12
reported result: 2.55

Now take the following compound into account.
Qu. GET /values?readout=logP&item= `CCN(CC)C(=O)Cc1c(-c2ccc(OCCF)cc2)nn2c(C)c(C)c(C)nc12`
Ans. 2.47

Entry source: ChEMBL document CHEMBL2331516
